- System: Canine_OSMR_hlgG1_Fc (canine)
- Sequence (chain, as listed by the source limits assumed, form in doubt): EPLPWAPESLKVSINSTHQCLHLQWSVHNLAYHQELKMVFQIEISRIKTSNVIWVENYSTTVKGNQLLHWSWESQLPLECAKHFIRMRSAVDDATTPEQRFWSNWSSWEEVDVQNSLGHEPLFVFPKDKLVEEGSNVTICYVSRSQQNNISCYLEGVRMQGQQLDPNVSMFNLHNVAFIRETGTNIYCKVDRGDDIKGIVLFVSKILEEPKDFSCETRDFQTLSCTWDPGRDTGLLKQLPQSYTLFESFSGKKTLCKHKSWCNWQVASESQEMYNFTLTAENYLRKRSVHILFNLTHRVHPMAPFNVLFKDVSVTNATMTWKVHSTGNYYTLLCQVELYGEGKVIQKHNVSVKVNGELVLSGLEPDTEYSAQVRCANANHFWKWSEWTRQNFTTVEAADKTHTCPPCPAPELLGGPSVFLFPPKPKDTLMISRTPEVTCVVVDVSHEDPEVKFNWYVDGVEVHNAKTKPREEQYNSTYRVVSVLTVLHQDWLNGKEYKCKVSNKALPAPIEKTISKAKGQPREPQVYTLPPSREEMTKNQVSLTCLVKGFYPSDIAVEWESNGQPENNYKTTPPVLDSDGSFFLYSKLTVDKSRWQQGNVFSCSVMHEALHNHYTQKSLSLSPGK
- Experiment Notes: SPR Biacore
Reported pKd by item:
Scale: pKd equals -log10([C]), with [C] in mol/L.

Sample records with pKd:
Binder	Recorded Measurement
mouse: canine 19F07 chimera (antibody, V domains shown) VH: EVKLVESEGGLVQPGSSMKLSCTASGFTFSDYYMAWVRQVPEKGLEWVANINYDGSSTYYLDSLKSRFIISRDNAKNILYLQMSSLKSEDTATYYCARGLTWDFDVWGTGTTVTVSS VL: DIVMTQSHKFMSPSVGDRVSITCKASQDVDTAVAWYQQKPGQSPKLLIYLASTRHTGVPDRFTGSGSGTDFTLTISNVQSEDLADYFCQQYSRFPLTFGAGTKLELKR	8.13
Mu_10F07_VH (SEQ ID NO: 39)_D99A (antibody, V domains shown) VH: DVKLVESGEGLVKPGGSLKLSCAASGFTFSSYAMSWVRQTPEKRLEWVTYISSGGDYFYYADTVKGRFTISRDNARNTLYLQMSSLKSEDTAMYYCTRAPITGTFAYWGQGTLVTVSA VL: DIQMTQTTSSLSASLGDRVTISCRASQDITNYLNWYQQKPDGTVKLLIYYTSTLHSGVPSRFSGSGSGTDFSLTISNLEQEDIATYFCQQGHMLPWTFGGGTKLEIKR	7.95
Canine_OSM (ligand) SCSDKYPELLGQLQKQADFMQHTNTLLDLYIRSQGLDKNGLKEHCRERPGAFPSKDALQRLSRRVFLRTLDTTLGQVLLRLAALEQDIPKAQDLEMLSGVKLNIRGFKNNIHCMAQLLPGSSETTEPTPTSPGASPSPTPTLDTFQRRLEGCRFLHGYHRFMRSVGQVFREWGKSLSRSRR	7.36
Mu_10F07_VL (SEQ ID NO: 41)_T97A (antibody, V domains shown) VH: DVKLVESGEGLVKPGGSLKLSCAASGFTFSSYAMSWVRQTPEKRLEWVTYISSGGDYFYYADTVKGRFTISRDNARNTLYLQMSSLKSEDTAMYYCTRDPITGTFAYWGQGTLVTVSA VL: DIQMTQTTSSLSASLGDRVTISCRASQDITNYLNWYQQKPDGTVKLLIYYTSTLHSGVPSRFSGSGSGTDFSLTISNLEQEDIATYFCQQGHMLPWAFGGGTKLEIKR	8.27
Mu_02D09_VH (SEQ ID NO: 31)_D31A (antibody, V domains shown) VH: EVQLVESGGGLVKPGGSLTLSCAASGFTFSAYGMHWLRQAPEKGLEWVAYISSGSRAVFFADTVKGRFTISRDNAKNTLFLQMTSLRSDDTAMYYCARDRYDGRGFAYWGQGTLVTVSA VL: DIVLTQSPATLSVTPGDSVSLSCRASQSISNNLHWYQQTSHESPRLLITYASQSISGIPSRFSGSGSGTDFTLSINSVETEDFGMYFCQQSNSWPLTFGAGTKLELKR	8.41

Using the record for Mu_10F07_VL (SEQ ID NO: 41)_W96A (antibody, V domains shown) VH: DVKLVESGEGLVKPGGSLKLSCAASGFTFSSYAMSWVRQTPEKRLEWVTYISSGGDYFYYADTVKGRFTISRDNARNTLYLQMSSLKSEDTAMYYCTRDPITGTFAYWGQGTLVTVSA VL: DIQMTQTTSSLSASLGDRVTISCRASQDITNYLNWYQQKPDGTVKLLIYYTSTLHSGVPSRFSGSGSGTDFSLTISNLEQEDIATYFCQQGHMLPATFGGGTKLEIKR , state its measured pKd.
7.40
